Details: 333.15 K; 2000 kPa; Liquid
Items are presented alongside their recorded mass density.
experimental readout: mass density (kg/m3)

>>> print(df.to_string())
                                   molecule  value_observed
0  CCCCCCCCCCCCCC[P+](CCCCCC)(CCCCCC)CCCCCC.CS(=O)(=O)[O-] [trihexyltetradecylphosphonium methanesulfonate]           908.7
1  CCCCCCCCCCCCCC[P+](CCCCCC)(CCCCCC)CCCCCC.N#C[N-]C#N [tetradecyl(trihexyl)phosphonium dicyanamide]           879.7
2  CCCCCCCCCCCCCC[P+](CCCCCC)(CCCCCC)CCCCCC.[Br-] [tetradecyltrihexylphosphonium bromide]             933
3  CCCCCCCCCCCCCC[P+](CCCCCC)(CCCCCC)CCCCCC.O=S(=O)([N-]S(=O)(=O)C(F)(F)F)C(F)(F)F          1042.2
4  CCCCCCCCCCCCCC[P+](CCCCCC)(CCCCCC)CCCCCC.[Cl-] [trihexyl(tetradecyl)phosphonium chloride]             870

* * *

Settings: 313.15 K; 3000 kPa; Liquid
experimental readout: mass density (kg/m3)

>>> print(df.to_string())
                                   compound  value_observed
0  CCCCCCCCCCCCCC[P+](CCCCCC)(CCCCCC)CCCCCC.CS(=O)(=O)[O-] [trihexyltetradecylphosphonium methanesulfonate]           921.3
1  CCCCCCCCCCCCCC[P+](CCCCCC)(CCCCCC)CCCCCC.[Cl-] [trihexyl(tetradecyl)phosphonium chloride]           882.2
2  CCCCCCCCCCCCCC[P+](CCCCCC)(CCCCCC)CCCCCC.O=S(=O)([N-]S(=O)(=O)C(F)(F)F)C(F)(F)F          1057.3
3  CCCCCCCCCCCCCC[P+](CCCCCC)(CCCCCC)CCCCCC.N#C[N-]C#N [tetradecyl(trihexyl)phosphonium dicyanamide]           891.6
4  CCCCCCCCCCCCCC[P+](CCCCCC)(CCCCCC)CCCCCC.[Br-] [tetradecyltrihexylphosphonium bromide]           945.8

* * *

mass density values for the compounds below.
Conditions: 323.15 K; 10000 kPa; Liquid
± gives the expanded uncertainty stated by the source.
experimental readout: mass density

>>> print(df.to_string())
                                   compound  experimental_readout      value_observed
0  CCCCCCCCCCCCCC[P+](CCCCCC)(CCCCCC)CCCCCC.[Br-] [tetradecyltrihexylphosphonium bromide]          mass density   943.9 ± 0.8 kg/m3
1  CCCCCCCCCCCCCC[P+](CCCCCC)(CCCCCC)CCCCCC.O=S(=O)([N-]S(=O)(=O)C(F)(F)F)C(F)(F)F          mass density  1054.7 ± 0.9 kg/m3
2  CCCCCCCCCCCCCC[P+](CCCCCC)(CCCCCC)CCCCCC.CS(=O)(=O)[O-] [trihexyltetradecylphosphonium methanesulfonate]          mass density   919.5 ± 0.9 kg/m3
3  CCCCCCCCCCCCCC[P+](CCCCCC)(CCCCCC)CCCCCC.N#C[N-]C#N [tetradecyl(trihexyl)phosphonium dicyanamide]          mass density   889.5 ± 1.1 kg/m3
4  CCCCCCCCCCCCCC[P+](CCCCCC)(CCCCCC)CCCCCC.[Cl-] [trihexyl(tetradecyl)phosphonium chloride]          mass density   880.2 ± 1.2 kg/m3
